assay system: UniProtKB Q72547
protocol: Compound concentration that causes 50 % inhibition of HIV-1 peptide-derived reverse transcriptase (RT) obtained from HIV-1-infected H9 cell cultures

compound: Cc1cn([C@H]2C[C@H](N=[N+]=[N-])[C@@H](CO[P@](=O)(O)O[P@](=O)(O)OP(=O)(O)O)O2)c(=O)[nH]c1=O [ZIDOVUDINE TRIPHOSPHATE]
IC50 / nM: 22

---

assay system: Human immunodeficiency virus type 1 reverse transcriptase (Human immunodeficiency virus 1, UniProt Q72547)
endpoint name: Ki (µM)

compound: Cc1cn(C2CC(N=[N+]=[N-])C(COP(=O)(O)OP(=O)(O)C(F)(F)P(=O)(O)O)O2)c(=O)[nH]c1=O (stereo unspecified)
value measured: 2.23

// provenance: ChEMBL document CHEMBL1125995
